assay: Wnt/beta-catenin pathway activators, primary screen, cell-based, plate reader, single point (AID 743398); conditions: Wnt/beta-catenin reporter cell assay, activator, at 9.35 µM;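 note: 0% = neutral control wells and 100% = positive control wells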
Among all 300,000 compounds or so, about 3,600 (1.2%) were called active. Cut-off read from the data, not from the text of the source: active = activation above about 30% (passing the limit was not always enough); inconclusive = no clear call, values can overlap the other calls. The sample holds actives, similar compounds and a random draw of the others, so the mix is not that of the screen.
Write down one outcome, taken from 1 = active, 0 = inactive

Challenge: // return assay outcome for `O=S(=O)(Nc1ccc2nc(-c3ccco3)[nH]c2c1)c1ccccc1`
Response given: 1

Challenge: // return assay outcome for `O=C1NC[C@H](Cc2ccc(O)cc2)N(C[C@@H]2CCCN2C[C@H](Cc2ccccc2)N2C[C@H](Cc3ccccc3)N(CC3CCCCC3)C(=O)C2=O)C1=O`
Response given: 0

Challenge: // return assay outcome for COCOc1cccc(CN2CCC(C)(Oc3ccc(SC)cc3)C2)c1 (stereo unspecified)
Response given: 0

Challenge: // return assay outcome for `O=[N+]([O-])c1ccccc1N/N=C1\CCc2ccccc21`
Response given: 1

Challenge: // return assay outcome for `Cn1c(CCN2CCCC2)nc2cc(NS(=O)(=O)c3ccccc3)ccc21`
Response given: 0

Challenge: // return assay outcome for `CCCCCCCCN1C(=O)[C@@H](CC(=O)NCc2ccc(C)o2)C[C@@]2(C(=O)OC)C1=C[C@H](C(C)(C)C)O[C@@H]2C`
Response given: 0

Challenge: // return assay outcome for `O=C(NCCS(=O)(=O)NCc1ccc(Cl)cc1)c1ccccc1`
Response given: 0

Challenge: // return assay outcome for `CN(Cc1ccc(C(F)(F)F)cc1)C(=O)[C@H]1O[C@@H](n2cnc3c(N)ncnc32)[C@H](O)[C@@H]1O`
Response given: 0

Challenge: // return assay outcome for `O=C(Cc1ccc(Cl)cc1)c1ccccc1`
Response given: 1

Just for reference, PubChem BioAssay AID743398 is where these values come from.
